assay-protocol: Human HepG2 cell viability assay in 384 well format
Assay type: toxicity, cell-based
Design: dose 125 nL, time 70.5 hour; concentration not given beside the values
test-settings: HepG2 cells, read-out: Inhibition
Listed below: cytotoxicity at 70.5 h values for each entry.
Report the value in % with no unit label.

Reference set (3 entries):
INSERT INTO measurements (compound, endpoint_unit, result_number) VALUES
  ('Cc1cc(NC(=O)NCC(C)N2CCc3ccccc32)no1 (stereo unspecified)', '%', -5.5),
  ('CN1CCN(C(=O)CCn2c(C(F)(F)F)cc3cccnc32)CC1', '%', 34.4),
  ('CC(C)=CCN1CCC2(CC1)CC(=O)N(Cc1cc(F)cc(F)c1)C2', '%', 2.51);

IN: Would you kindly share the measured cytotoxicity at 70.5 h for Cc1cccc(CN2CCC3(CCCN(C(=O)N4CCCC4)C3)C2=O)n1 (stereo unspecified) ?
OUT: 40

IN: Would you kindly share the measured cytotoxicity at 70.5 h for Cn1c(N2CCOCC2)nc2cc(C(=O)N3CCC(O)(CO)C3)ccc21 (stereo unspecified) ?
OUT: -2.61

IN: Would you kindly share the measured cytotoxicity at 70.5 h for "Cc1nc(C(=O)NCc2ccc(N3CCNC(=O)C3)c(F)c2)cs1" ?
OUT: -5.54

IN: Would you kindly share the measured cytotoxicity at 70.5 h for "CCOc1cc(=O)n2c(c1C(=O)OCc1ccc(C)cc1)CCCC2" ?
OUT: 24.4

IN: Would you kindly share the measured cytotoxicity at 70.5 h for "Cc1ccc(SCC(=O)NS(=O)(=O)c2ccc3c(c2)OCCO3)cc1" ?
OUT: -1.91

IN: Would you kindly share the measured cytotoxicity at 70.5 h for CC(=O)N1CCCC(Cc2cnc(-c3c(C)nn(C)c3C)cn2)C1 (stereo unspecified) ?
OUT: -7.67

IN: Would you kindly share the measured cytotoxicity at 70.5 h for CN1CCN(C2CCN(CC(O)c3ccccc3F)CC2)C1=O (stereo unspecified) ?
OUT: 16.4

IN: Would you kindly share the measured cytotoxicity at 70.5 h for Cc1ccccc1C(=O)NC(C)c1cnn(C)c1 (stereo unspecified) ?
OUT: 27.8

====

Listed below: cytotoxicity at 70.5 h values for each entry.
assay-protocol: Human HepG2 cell viability assay in 384 well format
Assay type: toxicity, cell-based
Set-up: dose 125 nL, time 70.5 hour; concentration not given beside the values
test-settings: HepG2 cells, read-out: Inhibition
Report the value in % with no unit label.

IN: Would you kindly share the measured cytotoxicity at 70.5 h for CN(C)CCOCC1CN(C(=O)c2cccnc2)Cc2ccnn2C1 (stereo unspecified) ?
OUT: -6.34

IN: Would you kindly share the measured cytotoxicity at 70.5 h for CC1CN(C(=O)c2ccn(-c3cccc(Cl)c3)n2)CCO1 (stereo unspecified) ?
OUT: -6.58

IN: Would you kindly share the measured cytotoxicity at 70.5 h for Cc1noc(C)c1C(C)NC(=O)N1CCCN(C(=O)c2ccsc2)CC1 (stereo unspecified) ?
OUT: -13.8

IN: Would you kindly share the measured cytotoxicity at 70.5 h for "Cc1cccc(N2CC[C@H]3CO[C@H](CN(C)Cc4ccco4)[C@H]3C2)n1" ?
OUT: -2.06

IN: Would you kindly share the measured cytotoxicity at 70.5 h for "Cc1nc[nH]c1CN1CCN(C(=O)C2CC2)[C@H]2CS(=O)(=O)C[C@H]21" ?
OUT: -12.6

IN: Would you kindly share the measured cytotoxicity at 70.5 h for CC(C)N1CCOC(CC(=O)N2CCCN(c3ccc(F)cc3)CC2)C1 (stereo unspecified) ?
OUT: -3.4
